Below: a set of entries, each annotated with reported EC50.
System: Human immunodeficiency virus 1
Experiment: Antiviral activity against pseudo HIV1 infected in human 293T cells after 2 days by luciferase reporter gene assay
Format: functional, organism-based
Details: Human immunodeficiency virus 1, HEK-293T, 48 h
// note: answer is a bare numeric in nM

Examples with answers:
- smiles.entry: "CN(C)C(=O)Cn1c(=O)c(C(=O)NCc2ccc(F)cc2)c(O)c2ncc(Cc3ccc(F)cc3)cc21"
  EC50 (nM): 10
- smiles.entry: "COc1ccc(CNC(=O)c2c(O)c3ncc(Cc4ccc(F)cc4)cc3[nH]c2=O)cc1"
  EC50 (nM): 7
- smiles.entry: "COc1cccc(CNC(=O)c2c(O)c3ncc(Cc4ccc(F)cc4)cc3[nH]c2=O)c1"
  EC50 (nM): 13
- smiles.entry: "O=C(NCc1ccc(F)cc1)c1c(O)c2ncc(Cc3ccccc3)cc2n(CC2CC2)c1=O"
  EC50 (nM): 30
- smiles.entry: "O=C(NCc1ccc(F)cc1)c1c(O)c2ncccc2n(C2CCCC2)c1=O"
  EC50 (nM): 110

Sample "O=C(NCc1ccc(F)cc1Cl)c1c(O)c2ncc(Cc3ccccc3)cc2[nH]c1=O" — what was its EC50?
120

Proceed to "O=C(NCc1ccc(F)cc1)c1c(O)c2ncc(Cc3ccc(F)cc3)cc2n(CC(=O)N2CCCCC2)c1=O"
26

And then "COc1ccccc1CNC(=O)c1c(O)c2ncc(Cc3ccc(F)cc3)cc2[nH]c1=O" , what is it?
9

Lookup "O=C(NCc1ccc(F)cc1)c1c(O)c2ncccc2[nH]c1=O"
110

Continue with "O=C(NCc1ccc(F)cc1)c1c(O)c2ncc(Cc3ccc(F)cc3)cc2n(CCN2CCCC2=O)c1=O"
3

Next compound up: "O=C(NCc1ccc(F)cc1)c1c(O)c2ncc(Cc3ccccc3)cc2[nH]c1=O"
19

And the next one, "COc1ccc(CNC(=O)c2c(O)c3ncc(Cc4ccc(F)cc4)cc3[nH]c2=O)cc1OC" ?
21

Continue with "O=C(NCc1ccc(F)cc1)c1c(O)c2ncc(Cc3ccc(F)cc3)cc2[nH]c1=O"
8

Repeat with "O=C(NCc1ccc(F)cc1C(F)(F)F)c1c(O)c2ncc(Cc3ccccc3)cc2[nH]c1=O"
39

Do the same for "Nc1ccc(Cn2c(=O)c(C(=O)NCc3ccc(F)cc3)c(O)c3ncc(Cc4ccccc4)cc32)cc1" please
12

// same read-out, input: "O=C(NCc1ccc(F)cc1)c1c(O)c2ncc(Cc3ccc(F)cc3)cc2n(CC(=O)N2CCOCC2)c1=O"
3

Moving on to "CCCn1c(=O)c(C(=O)NCc2ccc(F)cc2)c(O)c2ncc(Cc3ccccc3)cc21"
70

Source of measurements: ChEMBL document CHEMBL1914387
